Molecular target: F508delCFTR (Homo sapiens, UniProt P13569, DEL508-508)
Construct: expressed in transfected cells; host or cells: CFBE41o- human lung-derived epithelial cells (CFBE4lo-F508delCFTR-HRP), doxycycline-inducible
Sequence (P13569 with tags, fused parts or gaps DEL508-508): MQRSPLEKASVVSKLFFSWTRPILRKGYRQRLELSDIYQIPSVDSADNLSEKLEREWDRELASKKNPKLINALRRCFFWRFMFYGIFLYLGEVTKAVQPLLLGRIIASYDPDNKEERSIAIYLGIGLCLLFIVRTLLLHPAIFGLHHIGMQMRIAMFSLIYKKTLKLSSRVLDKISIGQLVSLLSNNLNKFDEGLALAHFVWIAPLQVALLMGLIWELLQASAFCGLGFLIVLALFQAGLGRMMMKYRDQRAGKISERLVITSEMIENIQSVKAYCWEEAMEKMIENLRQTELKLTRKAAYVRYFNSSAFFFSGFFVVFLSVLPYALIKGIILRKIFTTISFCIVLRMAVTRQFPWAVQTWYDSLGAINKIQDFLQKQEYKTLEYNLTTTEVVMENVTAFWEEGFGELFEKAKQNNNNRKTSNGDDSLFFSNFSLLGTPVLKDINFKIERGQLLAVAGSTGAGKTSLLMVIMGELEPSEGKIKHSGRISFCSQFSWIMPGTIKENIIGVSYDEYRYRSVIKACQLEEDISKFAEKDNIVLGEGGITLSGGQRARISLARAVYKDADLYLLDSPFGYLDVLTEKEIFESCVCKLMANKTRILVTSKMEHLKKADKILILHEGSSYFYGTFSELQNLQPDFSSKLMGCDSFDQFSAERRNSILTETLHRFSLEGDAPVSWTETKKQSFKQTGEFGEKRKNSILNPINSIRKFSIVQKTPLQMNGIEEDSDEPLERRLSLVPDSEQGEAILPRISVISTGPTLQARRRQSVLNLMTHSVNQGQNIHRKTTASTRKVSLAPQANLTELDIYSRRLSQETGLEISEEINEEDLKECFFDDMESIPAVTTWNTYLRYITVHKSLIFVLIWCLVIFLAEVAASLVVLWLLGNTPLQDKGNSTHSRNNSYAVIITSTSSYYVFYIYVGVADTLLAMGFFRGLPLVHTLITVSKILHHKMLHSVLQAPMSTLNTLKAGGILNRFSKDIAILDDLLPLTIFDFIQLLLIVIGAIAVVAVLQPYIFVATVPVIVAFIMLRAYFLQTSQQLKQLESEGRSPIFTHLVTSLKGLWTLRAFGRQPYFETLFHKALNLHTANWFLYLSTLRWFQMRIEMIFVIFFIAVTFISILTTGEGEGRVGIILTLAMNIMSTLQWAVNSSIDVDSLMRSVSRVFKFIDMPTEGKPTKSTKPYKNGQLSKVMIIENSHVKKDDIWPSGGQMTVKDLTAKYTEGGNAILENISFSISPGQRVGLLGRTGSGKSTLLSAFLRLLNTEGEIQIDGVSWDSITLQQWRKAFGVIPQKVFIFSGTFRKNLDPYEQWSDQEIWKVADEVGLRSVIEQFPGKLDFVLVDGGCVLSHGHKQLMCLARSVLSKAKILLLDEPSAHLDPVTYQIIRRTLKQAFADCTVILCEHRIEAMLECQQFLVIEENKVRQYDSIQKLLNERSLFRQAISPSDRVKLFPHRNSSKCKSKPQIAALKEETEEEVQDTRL
Assay: Cell Surface Expression-Horse Radish Peroxidase (CSE-HRP) Assay
Assay type: cell-based
Conditions: CSE-HRP; test compound without co-corrector; read-out: EC50 (without co-corrector)
Reported Property: EC50

Solved entries:
INSERT INTO measurements (compound, measurement_target, reported_value) VALUES
  ('COc1ccc(C2CCCCC2)cc1CN[C@H]1[C@H](C(C)(C)OC)[C@@H](C(=O)O)N(C(=O)C2CCCCC2)[C@H]1c1ccccc1 [II-257]', 'F508delCFTR (Homo sapiens, UniProt P13569, DEL508-508)', '< 1000 nM'),
  ('COc1ccc(C(C)(C)C)cc1CN[C@H]1[C@H](C(C)(C)C)[C@@H](C(=O)O)N(C(=O)C2(c3ccccn3)CC2)[C@H]1c1ccccc1 [II-189]', 'F508delCFTR (Homo sapiens, UniProt P13569, DEL508-508)', '1000 to 10000 nM'),
  ('COc1cc(C(F)(F)F)ccc1CN[C@H]1[C@H](C(C)(C)C)[C@@H](C(=O)O)N(C(=O)[C@H](OC)c2ccccc2)[C@H]1c1cccnc1OC [II-84]', 'F508delCFTR (Homo sapiens, UniProt P13569, DEL508-508)', '1000 to 10000 nM'),
  ('CCOc1ccc(CN[C@H]2[C@H](C(C)(C)C)[C@@H](C(=O)O)N(C(=O)C3CCCCC3)[C@H]2c2ccccc2)c(C)c1 [II-119]', 'F508delCFTR (Homo sapiens, UniProt P13569, DEL508-508)', '1000 to 10000 nM'),
  ('COc1ccc(C(C)(C)C)cc1CN[C@H]1[C@H](C(C)(C)C)[C@@H](C(=O)O)N(C(=O)Cc2cccc(O)c2)[C@H]1c1ccccc1 [II-196]', 'F508delCFTR (Homo sapiens, UniProt P13569, DEL508-508)', '1000 to 10000 nM'),
  ('COc1ccc(C(F)(F)F)cc1CN[C@@H]1[C@@H](C(C)(C)C)[C@H](C(=O)O)N(C(=O)[C@H]2CCCO[C@H]2C)[C@@H]1c1ccccc1 (racemic) [II-35]', 'F508delCFTR (Homo sapiens, UniProt P13569, DEL508-508)', '1000 to 10000 nM');

Response field EC50 (F508delCFTR (Homo sapiens, UniProt P13569, DEL508-508)) for item COc1ccc(C(C)(C)C)cc1CN[C@H]1[C@H](C(C)(C)C)[C@@H](C(=O)O)N(C(=O)c2cnn(-c3ccccc3C)c2C)[C@H]1c1ccccc1 [II-228] : < 1000 nM

Case COc1ncc(Br)cc1CN[C@H]1[C@H](C(C)(C)OC)[C@@H](C(=O)O)N(C(=O)C2CCCCC2)[C@H]1c1ccccc1 [II-247] , F508delCFTR (Homo sapiens, UniProt P13569, DEL508-508), EC50 recorded as 1000 to 10000 nM

// EC50 (F508delCFTR (Homo sapiens, UniProt P13569, DEL508-508)) for COc1cc(CN[C@H]2[C@H](C(C)(C)C)[C@@H](C(=O)O)N(C(=O)C3CCCCC3)[C@H]2c2ccccc2)ccc1F [II-112] = > 10000 nM

Assay F508delCFTR (Homo sapiens, UniProt P13569, DEL508-508), sample COc1cc(C(F)(F)F)ccc1CN[C@H]1[C@H](C(C)(C)C)[C@@H](C(=O)O)N(C(=O)C2CCCO2)[C@H]1c1ccccc1 (mixture of isomers) [II-60] , EC50 read: 1000 to 10000 nM

With F508delCFTR (Homo sapiens, UniProt P13569, DEL508-508) as the test system, COc1cc(C(F)(F)F)ccc1CN[C@H]1[C@H](C(C)(C)C)[C@@H](C(=O)O)N(C(=O)[C@H]2CCCCO2)[C@H]1c1ccccc1 [II-81] showed EC50 of 1000 to 10000 nM

Readout EC50 for COc1ncc(C(F)(F)F)cc1CN[C@H]1[C@H](C(C)(C)C)[C@@H](C(=O)O)N(C(=O)C2CCCCC2)[C@H]1c1ccccc1C [Example I-258] , test system F508delCFTR (Homo sapiens, UniProt P13569, DEL508-508), was < 1000 nM
